Molecular target: von Hippel-Lindau disease tumor suppressor/Son of sevenless homolog 1 (Homo sapiens, UniProt Q07889+P40337)
Assay: Protac activity at VHL/SOS1 in human NCI-H358 cells assessed as SOS1 protein degradation at 0.1 uM incubated for 24 hr by Western blot analysis relative to control
Assay type: cell-based
Sequence (P40337 whole entry, looked up): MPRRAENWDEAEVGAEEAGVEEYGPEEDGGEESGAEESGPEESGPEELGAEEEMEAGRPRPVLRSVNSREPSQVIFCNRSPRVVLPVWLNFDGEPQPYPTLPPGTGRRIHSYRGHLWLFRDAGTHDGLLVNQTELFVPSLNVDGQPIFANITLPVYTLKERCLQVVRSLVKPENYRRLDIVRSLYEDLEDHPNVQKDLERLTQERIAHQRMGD
Sequence (Q07889 whole entry, looked up): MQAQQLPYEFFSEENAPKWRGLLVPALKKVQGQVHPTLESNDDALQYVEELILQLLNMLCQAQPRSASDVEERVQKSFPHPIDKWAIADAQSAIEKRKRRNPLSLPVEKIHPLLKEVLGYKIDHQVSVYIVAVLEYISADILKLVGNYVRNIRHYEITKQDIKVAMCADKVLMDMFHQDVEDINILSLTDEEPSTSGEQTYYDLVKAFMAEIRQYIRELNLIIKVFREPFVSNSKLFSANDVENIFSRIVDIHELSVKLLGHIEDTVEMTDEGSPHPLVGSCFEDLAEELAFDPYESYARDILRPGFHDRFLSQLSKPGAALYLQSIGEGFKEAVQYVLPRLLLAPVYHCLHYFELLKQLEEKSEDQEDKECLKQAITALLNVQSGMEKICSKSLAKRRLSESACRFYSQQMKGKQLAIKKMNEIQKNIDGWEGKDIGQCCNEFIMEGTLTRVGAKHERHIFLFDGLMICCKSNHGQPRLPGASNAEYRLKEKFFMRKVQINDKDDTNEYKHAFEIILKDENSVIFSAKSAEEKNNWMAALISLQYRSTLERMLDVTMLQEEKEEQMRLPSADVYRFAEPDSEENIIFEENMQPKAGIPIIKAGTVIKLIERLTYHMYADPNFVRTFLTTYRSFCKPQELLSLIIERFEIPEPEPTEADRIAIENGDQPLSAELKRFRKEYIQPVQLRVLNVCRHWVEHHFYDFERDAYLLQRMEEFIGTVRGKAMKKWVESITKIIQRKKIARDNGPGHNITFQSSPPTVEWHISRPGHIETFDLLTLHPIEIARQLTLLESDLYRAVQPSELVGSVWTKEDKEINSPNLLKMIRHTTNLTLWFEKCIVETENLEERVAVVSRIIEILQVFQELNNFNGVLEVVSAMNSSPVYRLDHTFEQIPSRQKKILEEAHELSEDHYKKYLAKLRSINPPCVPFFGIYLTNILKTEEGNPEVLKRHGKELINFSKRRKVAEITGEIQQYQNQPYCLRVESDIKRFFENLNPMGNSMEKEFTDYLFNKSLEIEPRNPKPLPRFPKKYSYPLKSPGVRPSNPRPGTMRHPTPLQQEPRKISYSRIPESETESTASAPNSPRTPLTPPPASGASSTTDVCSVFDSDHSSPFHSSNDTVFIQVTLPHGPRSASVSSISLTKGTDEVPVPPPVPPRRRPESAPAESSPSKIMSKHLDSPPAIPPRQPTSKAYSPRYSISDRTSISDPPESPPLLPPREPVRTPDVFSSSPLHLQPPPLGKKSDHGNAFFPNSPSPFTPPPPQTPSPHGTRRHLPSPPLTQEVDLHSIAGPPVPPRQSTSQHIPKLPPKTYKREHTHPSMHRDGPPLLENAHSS
# Activity annotations
OBSERVATION TYPE: Activity

{"ITEM SMILES": "Cc1cc(Cn2c(N3CC4(CNC4)C3)nc3c(N4CCN(CCCCCCCCCC(=O)N[C@H](C(=O)N5C[C@H](O)C[C@H]5C(=O)N[C@@H](C)c5ccc(-c6scnc6C)cc5)C(C)(C)C)CC4)cc(Cl)cc32)cc(C)c1F", "EXPERIMENTAL VALUE": "38.5%"}
{"ITEM SMILES": "Cc1cc(Cn2c(N3CC4(CNC4)C3)nc3c(N4CCN(CCCCCCC(=O)N[C@H](C(=O)N5C[C@H](O)C[C@H]5C(=O)N[C@@H](C)c5ccc(-c6scnc6C)cc5)C(C)(C)C)CC4)cc(Cl)cc32)cc(C)c1F", "EXPERIMENTAL VALUE": "30.7%"}
{"ITEM SMILES": "Cc1cc(Cn2c(N3CC4(CNC4)C3)nc3c(N4CCN(CC5CCN(CCC(=O)N[C@H](C(=O)N6C[C@H](O)C[C@H]6C(=O)N[C@@H](C)c6ccc(-c7scnc7C)cc6)C(C)(C)C)CC5)CC4)cc(Cl)cc32)cc(C)c1F", "EXPERIMENTAL VALUE": "18.1%"}

###

Assay: Binding affinity to SOS1/VCB E3 ligase (unknown origin) assessed as ternary dissociation constant by surface plasmon resonance analysis
Set-up: species or system Homo sapiens
OBSERVATION TYPE: Kd (nM)

{"ITEM SMILES": "Cc1cc(Cn2c(N3CC4(CNC4)C3)nc3c(N4CCN(CCCCCCCCC(=O)N[C@H](C(=O)N5C[C@H](O)C[C@H]5C(=O)N[C@@H](C)c5ccc(-c6scnc6C)cc5)C(C)(C)C)CC4)cc(Cl)cc32)cc(C)c1F", "UNIT ABBREVIATION": "nM", "EXPERIMENTAL VALUE": 3.7}

###

Assay: Half life in BALB/c mouse at 10 mg/kg, ip measured after 24 hrs by LC-MS/MS analysis
Format: ADME, organism-based
Conditions: in vivo

{"ITEM SMILES": "Cc1cc(Cn2c(N3CC4(CNC4)C3)nc3c(N4CCN(CCCCCCCCC(=O)N[C@H](C(=O)N5C[C@H](O)C[C@H]5C(=O)N[C@@H](C)c5ccc(-c6scnc6C)cc5)C(C)(C)C)CC4)cc(Cl)cc32)cc(C)c1F", "half-life / h": 8.64}

###

Test system: SK-LU-1
Test: Antiproliferative activity against human SK-LU-1 cells harboring KRAS G12D mutant assessed as cell growth inhibition incubated for 7 days by CellTiter-Glo 3D cell viability assay
Type: functional, cell-based
Conditions: SK-LU-1, 168 h
pIC50: −log10 of the molar value.
OBSERVATION TYPE: pIC50

{"ITEM SMILES": "Cc1cc(Cn2c(N3CC4(CNC4)C3)nc3c(N4CCN(CCCCCCCCC(=O)N[C@H](C(=O)N5C[C@H](O)C[C@H]5C(=O)N[C@@H](C)c5ccc(-c6scnc6C)cc5)C(C)(C)C)CC4)cc(Cl)cc32)cc(C)c1F", "EXPERIMENTAL VALUE": 6.94}

###

Biological target: von Hippel-Lindau disease tumor suppressor/Son of sevenless homolog 1 (Homo sapiens, UniProt Q07889+P40337)
Test: Protac activity at VHL/SOS1 in human NCI-H358 cells assessed as SOS1 protein degradation at 0.1 uM incubated for 24 hr by Western blot analysis relative to control
Assay type: cell-based
# Activity annotations
OBSERVATION TYPE: Activity (%)

{"ITEM SMILES": "Cc1cc(Cn2c(N3CC4(CNC4)C3)nc3c(N4CCN(CCCC(=O)NCCCC(=O)N[C@H](C(=O)N5C[C@H](O)C[C@H]5C(=O)N[C@@H](C)c5ccc(-c6scnc6C)cc5)C(C)(C)C)CC4)cc(Cl)cc32)cc(C)c1F", "UNIT ABBREVIATION": "%", "EXPERIMENTAL VALUE": 8}
{"ITEM SMILES": "Cc1cc(Cn2c(N3CC4(CNC4)C3)nc3c(N4CCN(CC5CCN(CC(=O)N[C@H](C(=O)N6C[C@H](O)C[C@H]6C(=O)N[C@@H](C)c6ccc(-c7scnc7C)cc6)C(C)(C)C)CC5)CC4)cc(Cl)cc32)cc(C)c1F", "UNIT ABBREVIATION": "%", "EXPERIMENTAL VALUE": 13}

###

Target: von Hippel-Lindau disease tumor suppressor/Son of sevenless homolog 1 (Homo sapiens, UniProt Q07889+P40337)
Assay: Protac activity at VHL/SOS1 in human NCI-H358 cells assessed as SOS1 protein degradation incubated for 24 hr by Western blot analysis
Type: cell-based
Sequence (Q07889 whole entry): as the sequence (Q07889 whole entry, looked up) above
Sequence (P40337 whole entry): as the sequence (P40337 whole entry, looked up) above

{"ITEM SMILES": "Cc1cc(Cn2c(N3CC4(CNC4)C3)nc3c(N4CCN(CCCCCCCC(=O)N[C@H](C(=O)N5C[C@H](O)C[C@H]5C(=O)N[C@@H](C)c5ccc(-c6scnc6C)cc5)C(C)(C)C)CC4)cc(Cl)cc32)cc(C)c1F", "UNIT ABBREVIATION": "µM", "DC50": 0.15}
{"ITEM SMILES": "Cc1cc(Cn2c(N3CC4(CNC4)C3)nc3c(N4CCN(CCCCCCCCCC(=O)N[C@H](C(=O)N5C[C@H](O)C[C@H]5C(=O)N[C@@H](C)c5ccc(-c6scnc6C)cc5)C(C)(C)C)CC4)cc(Cl)cc32)cc(C)c1F", "UNIT ABBREVIATION": "µM", "DC50": 0.182}
{"ITEM SMILES": "Cc1cc(Cn2c(N3CC4(CNC4)C3)nc3c(N4CCN(CCCCCCC(=O)N[C@H](C(=O)N5C[C@H](O)C[C@H]5C(=O)N[C@@H](C)c5ccc(-c6scnc6C)cc5)C(C)(C)C)CC4)cc(Cl)cc32)cc(C)c1F", "UNIT ABBREVIATION": "µM", "DC50": 0.216}
{"ITEM SMILES": "Cc1cc(Cn2c(N3CC4(CNC4)C3)nc3c(N4CCN(CCCCCCCCC(=O)N[C@H](C(=O)N5C[C@H](O)C[C@H]5C(=O)N[C@@H](C)c5ccc(-c6scnc6C)cc5)C(C)(C)C)CC4)cc(Cl)cc32)cc(C)c1F", "UNIT ABBREVIATION": "µM", "DC50": 0.0984}

###

Target: von Hippel-Lindau disease tumor suppressor/Son of sevenless homolog 1 (Homo sapiens, UniProt Q07889+P40337)
Test: Protac activity at VHL/SOS1 in human NCI-H358 cells assessed as SOS1 protein degradation at 0.1 uM incubated for 24 hr by Western blot analysis relative to control
Type: cell-based
Measured Activity accompanies every entry in the list below.

{"ITEM SMILES": "Cc1cc(Cn2c(N3CC4(CNC4)C3)nc3c(N4CCN(CCCCCC(=O)N[C@H](C(=O)N5C[C@H](O)C[C@H]5C(=O)N[C@@H](C)c5ccc(-c6scnc6C)cc5)C(C)(C)C)CC4)cc(Cl)cc32)cc(C)c1F", "Activity [%]": 5.8}
{"ITEM SMILES": "Cc1cc(Cn2c(N3CC4(CNC4)C3)nc3c(N4CCN(CCC(=O)NCCCC(=O)N[C@H](C(=O)N5C[C@H](O)C[C@H]5C(=O)N[C@@H](C)c5ccc(-c6scnc6C)cc5)C(C)(C)C)CC4)cc(Cl)cc32)cc(C)c1F", "Activity [%]": 0}
{"ITEM SMILES": "Cc1cc(Cn2c(N3CC4(CNC4)C3)nc3c(N4CCN(CC5CCN(CCCC(=O)N[C@H](C(=O)N6C[C@H](O)C[C@H]6C(=O)N[C@@H](C)c6ccc(-c7scnc7C)cc6)C(C)(C)C)CC5)CC4)cc(Cl)cc32)cc(C)c1F", "Activity [%]": 7}
{"ITEM SMILES": "Cc1cc(Cn2c(N3CC4(CNC4)C3)nc3c(N4CCN(CCOCCOCCOCCC(=O)N[C@H](C(=O)N5C[C@H](O)C[C@H]5C(=O)N[C@@H](C)c5ccc(-c6scnc6C)cc5)C(C)(C)C)CC4)cc(Cl)cc32)cc(C)c1F", "Activity [%]": 15.4}
{"ITEM SMILES": "Cc1cc(Cn2c(N3CC4(CNC4)C3)nc3c(N4CCN(CCCCCCCCCCC(=O)N[C@H](C(=O)N5C[C@H](O)C[C@H]5C(=O)N[C@@H](C)c5ccc(-c6scnc6C)cc5)C(C)(C)C)CC4)cc(Cl)cc32)cc(C)c1F", "Activity [%]": 31.7}

###

Molecular target: von Hippel-Lindau disease tumor suppressor/Son of sevenless homolog 1 (Homo sapiens, UniProt Q07889+P40337)
Assay: Protac activity at VHL/SOS1 in human NCI-H358 cells assessed as SOS1 protein degradation at 0.1 uM incubated for 24 hr by Western blot analysis relative to control
Assay type: cell-based
Overview of recorded Activity for various compounds
OBSERVATION TYPE: Activity (%)

{"ITEM SMILES": "Cc1cc(Cn2c(N3CC4(CNC4)C3)nc3c(N4CCN(CCCCC(=O)NCCCC(=O)N[C@H](C(=O)N5C[C@H](O)C[C@H]5C(=O)N[C@@H](C)c5ccc(-c6scnc6C)cc5)C(C)(C)C)CC4)cc(Cl)cc32)cc(C)c1F", "EXPERIMENTAL VALUE": 3.2}
{"ITEM SMILES": "Cc1cc(Cn2c(N3CC4(CNC4)C3)nc3c(N4CCN(CCOCCOCC(=O)N[C@H](C(=O)N5C[C@H](O)C[C@H]5C(=O)N[C@@H](C)c5ccc(-c6scnc6C)cc5)C(C)(C)C)CC4)cc(Cl)cc32)cc(C)c1F", "EXPERIMENTAL VALUE": 23.3}
{"ITEM SMILES": "Cc1cc(Cn2c(N3CC4(CNC4)C3)nc3c(N4CCN(CCCCCCCC(=O)N[C@H](C(=O)N5C[C@H](O)C[C@H]5C(=O)N[C@@H](C)c5ccc(-c6scnc6C)cc5)C(C)(C)C)CC4)cc(Cl)cc32)cc(C)c1F", "EXPERIMENTAL VALUE": 27.6}
{"ITEM SMILES": "Cc1cc(Cn2c(N3CC4(CNC4)C3)nc3c(N4CCN(CCCCCCCCCCCC(=O)N[C@H](C(=O)N5C[C@H](O)C[C@H]5C(=O)N[C@@H](C)c5ccc(-c6scnc6C)cc5)C(C)(C)C)CC4)cc(Cl)cc32)cc(C)c1F", "EXPERIMENTAL VALUE": 33}
{"ITEM SMILES": "Cc1cc(Cn2c(N3CC4(CNC4)C3)nc3c(N4CCN(CCCCCCCCC(=O)N[C@H](C(=O)N5C[C@H](O)C[C@H]5C(=O)N[C@@H](C)c5ccc(-c6scnc6C)cc5)C(C)(C)C)CC4)cc(Cl)cc32)cc(C)c1F", "EXPERIMENTAL VALUE": 56.2}
{"ITEM SMILES": "Cc1cc(Cn2c(N3CC4(CNC4)C3)nc3c(N4CCN(CCOCCOCCC(=O)N[C@H](C(=O)N5C[C@H](O)C[C@H]5C(=O)N[C@@H](C)c5ccc(-c6scnc6C)cc5)C(C)(C)C)CC4)cc(Cl)cc32)cc(C)c1F", "EXPERIMENTAL VALUE": 4.4}
